Origin of the recorded values: ChEMBL document CHEMBL4385622

Experiment: Oral bioavailability in monkey at 1 mg/kg
Format: ADME, organism-based, Macaca mulatta
Conditions: rhesus monkey, in vivo

# chemical string, unit spec, bioavailability
records = [
    ("COC[C@H]1C[C@@H](c2ncc(-c3ccc4c(c3)COc3cc5c(ccc6nc([C@@H]7CC[C@H](C)N7C(=O)[C@@H](NC(=O)OC)C(C)C)[nH]c65)cc3-4)[nH]2)N(C(=O)[C@H](NC(=O)OC)c2ccccc2)C1", "%", 30),
]

----------
Experiment: Fraction absorbed in cynomolgus monkey
Format: ADME, Macaca fascicularis
Details: in vivo, read-out: Fabs
The recorded Fa of each item maps onto one of these classes: class A = under 4%, class B = from 4% up to 40%, class C = 40% and over

# compound, class assignment
records = [
    ("COC(=O)N[C@@H](C(=O)N1CCC[C@H]1c1ncc(-c2cc3c4c(c2)OCc2cc(-c5cnc([C@@H]6CCCN6C(=O)[C@H](NC(=O)OC)c6ccccc6)[nH]5)cc(c2-4)OC3)[nH]1)c1ccccc1", "class A"),
    ("COC(=O)N[C@H](C(=O)N1CCC[C@H]1c1ncc(-c2ccc3c(c2)COc2cc4c(ccc5nc([C@@H]6CCCN6C(=O)[C@H](NC(=O)OC)c6ccccc6)[nH]c54)cc2-3)[nH]1)C(C)C", "class B"),
    ("COC[C@H]1C[C@@H](c2ncc(-c3ccc4c(c3)COc3cc5c(ccc6nc([C@@H]7CCCN7C(=O)[C@@H](NC(=O)OC)C(C)C)[nH]c65)cc3-4)[nH]2)N(C(=O)[C@H](NC(=O)OC)c2ccccc2)C1", "class A"),
    ("COC(=O)N[C@H](C(=O)N1[C@@H](C)CC[C@H]1c1ncc(-c2ccc3c(c2)COc2cc4c(ccc5nc([C@@H]6CC[C@H](C)N6C(=O)[C@@H](NC(=O)OC)C(C)C)[nH]c54)cc2-3)[nH]1)C(C)C", "class C"),
    ("COC(=O)N[C@H](C(=O)N1CCC[C@H]1c1ncc(-c2cc3c4c(c2)OCc2cc(-c5cnc([C@@H]6CCCN6C(=O)[C@@H](NC(=O)OC)C(C)C)[nH]5)cc(c2-4)OC3)[nH]1)C(C)C", "class B"),
    ("COC[C@H]1C[C@@H](c2ncc(-c3cc4c5c(c3)OCc3cc(-c6cnc([C@@H]7CC[C@H](C)N7C(=O)[C@@H](NC(=O)OC)C(C)C)[nH]6)cc(c3-5)OC4)[nH]2)N(C(=O)[C@H](NC(=O)OC)c2ccccc2)C1", "class B"),
    ("COC[C@H]1C[C@@H](c2nc3ccc4cc5c(cc4c3[nH]2)OCc2cc(-c3cnc([C@@H]4CC[C@H](C)N4C(=O)[C@@H](NC(=O)OC)C(C)C)[nH]3)ccc2-5)N(C(=O)[C@@H](NC(=O)OC)C(C)C)C1", "class C"),
    ("COC[C@H]1C[C@@H](c2ncc(-c3ccc4c(c3)COc3cc5c(ccc6nc([C@@H]7CC[C@H](C)N7C(=O)[C@@H](NC(=O)OC)C(C)C)[nH]c65)cc3-4)[nH]2)N(C(=O)[C@H](NC(=O)OC)c2ccccc2)C1 [VELPATASVIR]", "class B"),
]
